Cited source for all entries: PubChem BioAssay (NCI)

System: A498 renal
protocolDescription: NCI tumour cell line growth inhibition, 384-well format
Entries annotated with measured TGI
The response must be a number in µM with no trailing unit.

// worked examples, TGI included
{"recordSmiles": "N#CC1(c2ccc(NC(=O)c3cccnc3NCc3ccncc3)cc2)CCCC1", "readingUnit": "µM", "TGI": 20.5}
{"recordSmiles": "COc1cc2c(N3CCN(C(=O)Nc4ccc(OC(C)C)cc4)CC3)ncnc2cc1OCCCN1CCCCC1", "readingUnit": "µM", "TGI": 17.3}

Turning to the following compound.
Lookup result for `Cn1nccc1Nc1nccc(-c2ccn([C@H](CO)c3ccc(Cl)c(F)c3)c(=O)c2)n1` ; measured TGI: 33.9

====

Entries annotated with measured TGI
Tested on: DU-145 prostate
protocolDescription: NCI tumour cell line growth inhibition, 384-well format
Include the unit right after the number.

// worked examples, TGI included
{"recordSmiles": "Cn1nccc1Nc1nccc(-c2ccn([C@H](CO)c3ccc(Cl)c(F)c3)c(=O)c2)n1", "studySystem": "DU-145 prostate", "result": "38.1 µM"}
{"recordSmiles": "COc1cc2c(N3CCN(C(=O)Nc4ccc(OC(C)C)cc4)CC3)ncnc2cc1OCCCN1CCCCC1", "studySystem": "DU-145 prostate", "result": "26.3 µM"}
{"recordSmiles": "CN[C@@H](C)C(=O)N[C@H]1CN(S(=O)(=O)c2cccc(S(=O)(=O)N3CC[C@H]4CC[C@@H](C(=O)NC(c5ccccc5)c5ccccc5)N4C(=O)[C@@H](NC(=O)[C@H](C)NC)C3)c2)CC[C@H]2CC[C@@H](C(=O)NC(c3ccccc3)c3ccccc3)N2C1=O", "studySystem": "DU-145 prostate", "result": "16.7 µM"}

Turning to the following compound.
Lookup result for `N#CC1(c2ccc(NC(=O)c3cccnc3NCc3ccncc3)cc2)CCCC1` ; measured TGI: 33.5 µM
